- assay-system: T1, human CRH receptor type 2 (human, UniProt Q13324 1-411)
- T1 sequence (looked up): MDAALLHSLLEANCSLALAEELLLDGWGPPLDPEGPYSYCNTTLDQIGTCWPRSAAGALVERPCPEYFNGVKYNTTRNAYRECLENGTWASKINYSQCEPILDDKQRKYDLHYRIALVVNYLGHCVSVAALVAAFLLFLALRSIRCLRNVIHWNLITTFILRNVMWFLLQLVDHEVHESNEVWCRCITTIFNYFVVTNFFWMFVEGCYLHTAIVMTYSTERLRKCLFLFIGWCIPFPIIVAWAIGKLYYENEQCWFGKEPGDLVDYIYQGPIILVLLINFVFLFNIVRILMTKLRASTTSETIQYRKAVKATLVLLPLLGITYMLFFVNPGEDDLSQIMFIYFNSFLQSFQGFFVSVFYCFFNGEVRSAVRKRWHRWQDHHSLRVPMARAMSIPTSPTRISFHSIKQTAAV
- experiment-notes: cell-based or functional assay
No end group written: not given here.
measurement-type: pA50, cAMP

Known pA50, cAMP results, listed for orientation:
>>> test_value("TKFTLSLDVPTNIMNLLFNIAKAKNLRAQCAANAHLMAQI-NH2 [Cys-variant CRHR2 peptide agonist, SEQ ID NO: 31]")
"8.02 -log M"
>>> test_value("TKFTLSLDVPTNIMNCLFNIAKAKNLRAQAAANAHLMAQI (NES-PEG (about 20 kDa) on Cys 16; C-terminal amide) [Pegylated Cys-variant CRHR2 peptide agonist (NES linker, PEG about 20 kDa), SEQ ID NO: 70]")
"~7.34 -log M"
>>> test_value("TKFTLSLDVPTNIMNLLFNIAKACNLRAQAAANAHLMAQI (NES-PEG (about 20 kDa) on Cys 24; C-terminal amide) [Pegylated Cys-variant CRHR2 peptide agonist (NES linker, PEG about 20 kDa), SEQ ID NO: 78]")
"~7.89 -log M"
>>> test_value("TKFTLSLDVPTNIMNLLFNIAKAKNLRAQAAANCHLMAQI (NES-PEG (about 20 kDa) on Cys 34; C-terminal amide) [Pegylated Cys-variant CRHR2 peptide agonist (NES linker, PEG about 20 kDa), SEQ ID NO: 88]")
"8.12 -log M"
>>> test_value("TKFTLSLDVPTNCMNLLFNIAKAKNLRAQAAANAHLMAQI (NES-PEG (about 20 kDa) on Cys 13; C-terminal amide) [Pegylated Cys-variant CRHR2 peptide agonist (NES linker, PEG about 20 kDa), SEQ ID NO: 67]")
"~6.35 -log M"

I need pA50, cAMP for every entry listed below, if you could help.
1. TKFTLSLDVPTCIMNLLFNIAKAKNLRAQAAANAHLMAQI-NH2 [Cys-variant CRHR2 peptide agonist, SEQ ID NO: 13]
2. TKFTLSLDVPTNIMNLLFNIAKAKNLRAQAAANAHLMCQI (NES-PEG (about 20 kDa) on Cys 38; C-terminal amide) [Pegylated Cys-variant CRHR2 peptide agonist (NES linker, PEG about 20 kDa), SEQ ID NO: 92]
3. TKFTLSLDVPTNIMNLLFNIAKAKNLRAQAAANAHLMAQC-NH2 [Cys-variant CRHR2 peptide agonist, SEQ ID NO: 41]
4. TKFTLSLCVPTNIMNLLFNIAKAKNLRAQAAANAHLMAQI (NES-PEG (about 20 kDa) on Cys 8; C-terminal amide) [Pegylated Cys-variant CRHR2 peptide agonist (NES linker, PEG about 20 kDa), SEQ ID NO: 62]
5. TKFTLSLDVPTNICNLLFNIAKAKNLRAQAAANAHLMAQI-NH2 [Cys-variant CRHR2 peptide agonist, SEQ ID NO: 15]
6. TKFTLSLDVPTNIMNLCFNIAKAKNLRAQAAANAHLMAQI-NH2 [Cys-variant CRHR2 peptide agonist, SEQ ID NO: 18]

# output
1. 9.59 -log M
2. 8.12 -log M
3. 7.45 -log M
4. ~6.06 -log M
5. 8.68 -log M
6. 8.41 -log M

Report pA50, cAMP for each item below.
1. TKFTLSLDVPTNIMNLLFNIAKAKNCRAQAAANAHLMAQI (NES-PEG (about 20 kDa) on Cys 26; C-terminal amide) [Pegylated Cys-variant CRHR2 peptide agonist (NES linker, PEG about 20 kDa), SEQ ID NO: 80]
2. TKFTLSLDVPTNIMNLLFNIAKAKCLRAQAAANAHLMAQI (NES-PEG (about 20 kDa) on Cys 25; C-terminal amide) [Pegylated Cys-variant CRHR2 peptide agonist (NES linker, PEG about 20 kDa), SEQ ID NO: 79]
3. TKFTLSLDVPTNIMNLLFNIAKAKNLRAQAAANAHLMACI (NES-PEG (about 20 kDa) on Cys 39; C-terminal amide) [Pegylated Cys-variant CRHR2 peptide agonist (NES linker, PEG about 20 kDa), SEQ ID NO: 93]
4. TKFTLSLDVPTNIMNLLFNIAKAKNLRAQAAANCHLMAQI-NH2 [Cys-variant CRHR2 peptide agonist, SEQ ID NO: 35]
5. TKFTLCLDVPTNIMNLLFNIAKAKNLRAQAAANAHLMAQI-NH2 [Cys-variant CRHR2 peptide agonist, SEQ ID NO: 7]
6. TKFTLSLDVPTNIMNLLFNIAKCKNLRAQAAANAHLMAQI (NES-PEG (about 20 kDa) on Cys 23; C-terminal amide) [Pegylated Cys-variant CRHR2 peptide agonist (NES linker, PEG about 20 kDa), SEQ ID NO: 77]
7. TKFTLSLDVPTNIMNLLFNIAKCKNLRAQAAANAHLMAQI-NH2 [Cys-variant CRHR2 peptide agonist, SEQ ID NO: 24]
8. TKFTLSLDVPTNIMNLLFNCAKAKNLRAQAAANAHLMAQI-NH2 [Cys-variant CRHR2 peptide agonist, SEQ ID NO: 21]

# output
7.6 -log M
8.5 -log M
8.2 -log M
8.93 -log M
7.6 -log M
8.27 -log M
8.94 -log M
8.75 -log M

Look up pA50, cAMP for the entries below, preserving their order.
1. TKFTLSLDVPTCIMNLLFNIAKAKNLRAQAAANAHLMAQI (NES-PEG (about 20 kDa) on Cys 12; C-terminal amide) [Pegylated Cys-variant CRHR2 peptide agonist (NES linker, PEG about 20 kDa), SEQ ID NO: 66]
2. TKFTLSLDVPTNIMNLLFNIAKAKNLRCQAAANAHLMAQI-NH2 [Cys-variant CRHR2 peptide agonist, SEQ ID NO: 29]
3. TKFTLSLDVPTNIMNLLFNIAKAKNLRAQACANAHLMAQI (NES-PEG (about 20 kDa) on Cys 31; C-terminal amide) [Pegylated Cys-variant CRHR2 peptide agonist (NES linker, PEG about 20 kDa), SEQ ID NO: 85]

# output
1: 8.31 -log M; 2: 9.47 -log M; 3: 8.51 -log M

Parameters: items (list). Returns: pA50, cAMP for each item.
1. TKFTLSLDCPTNIMNLLFNIAKAKNLRAQAAANAHLMAQI-NH2 [Cys-variant CRHR2 peptide agonist, SEQ ID NO: 10]
2. TCFTLSLDVPTNIMNLLFNIAKAKNLRAQAAANAHLMAQI (NES-PEG (about 20 kDa) on Cys 2; C-terminal amide) [Pegylated Cys-variant CRHR2 peptide agonist (NES linker, PEG about 20 kDa), SEQ ID NO: 56]

# output
1. 8.28 -log M
2. ~7.2 -log M
